measured target: T1, MDM2 (In-house, 41 kD) (UniProt Q00987 1-138, limits assumed)
T1 construct: Construct used in the FP assays is described only as in-house, 41 kD; also called HDM2
T1 sequence (Q00987 1-138 limits assumed): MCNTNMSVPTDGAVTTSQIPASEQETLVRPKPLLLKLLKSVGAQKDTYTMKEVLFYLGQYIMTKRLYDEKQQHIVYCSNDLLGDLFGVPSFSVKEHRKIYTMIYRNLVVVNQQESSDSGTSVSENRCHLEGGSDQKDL
assay info: competitive fluorescence polarization vs FAM-labeled linear peptide; grade of Ki (MDM2); scale in paragraph 664: ++ = >100 and <=1000 nM
Bridge positions count the residues as written; N and C are the ends. Square brackets hold non-standard residues; d marks the D form. $4rn6 = Alpha-Me R-azide 1,4 triazole (6 carbon), forms a triazole cross-link with a second residue in the same molecule; $4a5 = Alpha-Me alkyne 1,4 triazole (5 carbon), forms a triazole cross-link with a second residue in the same molecule
experimental readout: Ki

Challenge: State its Ki for this binder: Ac-LTF[$4rn6]AYWAQL[$4a5]AAAAA[dA]-NH2 (triazole 4-11, Triazole-crosslinked macrocycle of Formula I; also called Ac-LTF$4rn6AYWAQL$4a5AAAAAa-NH2) [SP-450]
Response given: 100 to 1000 nM
